# credit: PubChem BioAssay (NCATS)

Consider the following compounds and their measured activity change, negative = inhibition readings.
# method_description: NFAT Signaling Pathway (AID 444);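 further: carbachol stimulus at about its EC50 of 1 µM final; on the % scale 0 is the no-effect control and ±100 the full control effect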
# particulars: Jurkat NFAT-bla M1, carbachol, beta-lactamase ratio, 5 h; at 7.69 µM (top of the series) unless noted
Records with an inconclusive call do not appear. Activity calls are given as the source filed them. The call rests on the fitted dose curve; in most records, active means well fitted curve in either direction with a large enough effect (not every such curve was filed as active); inconclusive means small, poorly fitted or top-dose-only effect, or another doubt; inactive means flat fitted curve, though single readings scatter.
measurement_type: activity change, negative = inhibition

chem_smiles	val
c1ccc2c(Nc3ccncc3)nc(-c3ccoc3)nc2c1	-19.5% (inactive)
O=c1c(-c2ccc(F)cc2)nc2cncnc2n1C1CC1	2.7% (inactive)
CN1CCN(c2ncc3ncc(=O)n(-c4ccccc4)c3n2)CC1	-18.4% (inactive)
Cc1noc(C)c1-c1nc(N(C)C)c2ccccc2n1	3.94% (inactive)
